Attribution: patent US11713338B2

Listed below: pIC50 values for each entry.
assay-system: recombinant integrin α4β7 (Homo sapiens, UniProt P13612+P26010, DEL724-798)
Construct: purchased R&D Systems 5397-A3-050
test-protocol: Integrin α4β7—MAdCAM-1 ELISA competition assay
Format: binding
stated-conditions: read-out: ELISA a4b7 Assay IC50
The quantity pIC50 is defined as the negative base-10 logarithm of the molar concentration.

Examples with their reported pIC50 follow.
smiles-structure	measured-value
CC(C)C[C@@H]1NC(=O)c2ccc(-c3cccc4ncccc34)c(c2)CNC(=O)[C@@H]2CCCN2[C@H](C(=O)NC(C)(C)C)[C@H](C)NC(=O)[C@H]([C@@H](C)O)NC(=O)[C@H](CC(=O)O)NC1=O	7.64
CO[C@H](C)[C@@H]1NC(=O)[C@H](CC(=O)O)NC(=O)[C@H](CC(C)C)NC(=O)[C@H](Cc2ccccc2)NC(=O)[C@@H]2CCCN2[C@H](C(=O)NC(C)(C)C)[C@H](C)NC1=O	7.20

Supply measured pIC50 of COc1cccc(Cl)c1-c1ccc(C[C@@H]2NC(=O)[C@@H]3CCCN3[C@H](C(=O)NC(C)(C)C)[C@H](C)NC(=O)[C@H]([C@@H](C)O)NC(=O)[C@H](CC(=O)O)NC(=O)[C@H](CC(C)C)NC(=O)C[C@H](CCCCN)NC2=O)cc1 in your reply.
7.25

Return value of pIC50 for input CC(C)C[C@@H]1NC(=O)[C@H]2C[C@H](O)CN2C(=O)[C@H](Cc2cscn2)NC(=O)[C@@H]2CCCN2[C@H](C(=O)NC(C)(C)C)[C@H](C)NC(=O)[C@H]([C@@H](C)O)NC(=O)[C@H](CC(=O)O)NC1=O , no commentary.
7.28

###

Below is a list of entries, each paired with its recorded IC50 value.
assay-system: integrin α4β7 on α4β7+ memory T helper cells (Homo sapiens, UniProt P13612+P26010)
Construct: endogenous in cells
Sequence (P13612 34-1032): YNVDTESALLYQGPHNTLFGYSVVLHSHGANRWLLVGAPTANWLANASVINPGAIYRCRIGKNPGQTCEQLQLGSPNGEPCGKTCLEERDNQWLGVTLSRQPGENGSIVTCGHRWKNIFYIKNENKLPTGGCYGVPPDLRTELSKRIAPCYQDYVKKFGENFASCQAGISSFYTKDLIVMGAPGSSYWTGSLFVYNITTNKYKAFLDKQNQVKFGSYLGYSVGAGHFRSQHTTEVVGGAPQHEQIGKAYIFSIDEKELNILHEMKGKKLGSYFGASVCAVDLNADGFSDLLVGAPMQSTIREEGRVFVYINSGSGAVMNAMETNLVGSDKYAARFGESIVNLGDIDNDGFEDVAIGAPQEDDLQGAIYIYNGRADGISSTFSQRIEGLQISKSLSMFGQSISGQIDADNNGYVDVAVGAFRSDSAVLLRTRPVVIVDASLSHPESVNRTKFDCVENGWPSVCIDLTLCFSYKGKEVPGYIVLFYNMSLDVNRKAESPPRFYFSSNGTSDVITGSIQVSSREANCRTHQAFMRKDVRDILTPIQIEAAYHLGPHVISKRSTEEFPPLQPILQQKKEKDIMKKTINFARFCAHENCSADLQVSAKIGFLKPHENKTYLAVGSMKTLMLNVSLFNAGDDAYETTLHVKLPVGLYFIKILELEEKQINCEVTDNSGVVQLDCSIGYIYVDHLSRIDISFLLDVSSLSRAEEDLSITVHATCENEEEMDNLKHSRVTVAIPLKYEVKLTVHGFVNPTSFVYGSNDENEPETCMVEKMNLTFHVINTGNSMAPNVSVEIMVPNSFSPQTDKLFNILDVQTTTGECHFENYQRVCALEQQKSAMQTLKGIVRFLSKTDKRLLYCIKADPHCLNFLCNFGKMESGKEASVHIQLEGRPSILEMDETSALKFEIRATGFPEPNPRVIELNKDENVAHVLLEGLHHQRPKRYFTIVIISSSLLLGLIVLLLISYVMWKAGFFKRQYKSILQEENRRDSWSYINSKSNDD
Sequence (P26010 20-798): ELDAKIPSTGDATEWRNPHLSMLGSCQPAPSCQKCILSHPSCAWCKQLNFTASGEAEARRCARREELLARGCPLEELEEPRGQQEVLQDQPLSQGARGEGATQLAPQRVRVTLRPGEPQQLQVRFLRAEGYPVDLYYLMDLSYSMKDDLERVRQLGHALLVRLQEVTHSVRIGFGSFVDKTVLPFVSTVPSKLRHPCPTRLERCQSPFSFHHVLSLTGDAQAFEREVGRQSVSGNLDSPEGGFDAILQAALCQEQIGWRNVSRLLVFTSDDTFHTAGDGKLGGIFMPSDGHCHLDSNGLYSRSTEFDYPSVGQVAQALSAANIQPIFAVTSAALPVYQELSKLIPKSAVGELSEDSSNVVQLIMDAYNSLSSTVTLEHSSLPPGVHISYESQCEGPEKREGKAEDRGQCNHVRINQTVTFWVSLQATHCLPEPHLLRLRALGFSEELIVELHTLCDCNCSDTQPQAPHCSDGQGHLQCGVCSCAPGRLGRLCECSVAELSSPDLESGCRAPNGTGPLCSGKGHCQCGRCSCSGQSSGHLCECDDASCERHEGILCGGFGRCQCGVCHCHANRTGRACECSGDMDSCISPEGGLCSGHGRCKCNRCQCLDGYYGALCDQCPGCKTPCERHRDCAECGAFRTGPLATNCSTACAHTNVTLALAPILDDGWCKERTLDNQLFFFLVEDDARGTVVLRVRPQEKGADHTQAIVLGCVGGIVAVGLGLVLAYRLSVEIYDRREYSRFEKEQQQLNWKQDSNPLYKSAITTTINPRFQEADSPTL
test-protocol: MAdCAM-1 competition / receptor occupancy assay in human whole blood, α4β7-positive Th memory cells
Format: cell-based
stated-conditions: human whole blood, inhibition of MAdCAM-1 binding to α4β7-positive Th memory cells, FACS; read-out: MADCAM FACS α4β7 Th mem
Quick note: give the figure in nM, leave out the unit.

smiles-structure	assay-system	IC50, nM
CC(C)C[C@@H]1NC(=O)c2ccc(-c3ccc(N4CCN(C(=O)CCOCCOCCOCCOCCOCCOCCOCCOCCOCCOCCOCCC(=O)N5CCN(c6ccc(-c7ccc8cc7CNC(=O)[C@@H]7CCCN7[C@H](C(=O)NC(C)(C)C)[C@H](C)NC(=O)[C@H]([C@@H](C)O)NC(=O)[C@H](CC(=O)O)NC(=O)[C@H](CC(C)C)NC8=O)cc6)CC5)CC4)cc3)c(c2)CNC(=O)[C@@H]2CCCN2[C@H](C(=O)NC(C)(C)C)[C@H](C)NC(=O)[C@H]([C@@H](C)O)NC(=O)[C@H](CC(=O)O)NC1=O	integrin α4β7 on α4β7+ memory T helper cells (Homo sapiens, UniProt P13612+P26010)	250

# next compound below
Give me measured IC50, please, for this compound: CC(C)C[C@@H]1NC(=O)c2ccc(-c3ccc(N4CCN(C(=O)c5ccc(-c6ccc(C(=O)N7CCN(c8ccc(-c9ccc%10cc9CNC(=O)[C@@H]9CCCN9[C@H](C(=O)NC(C)(C)C)[C@H](C)NC(=O)[C@H]([C@@H](C)O)NC(=O)[C@H](CC(=O)O)NC(=O)[C@H](CC(C)C)NC%10=O)cc8)CC7)cc6)cc5)CC4)cc3)c(c2)CNC(=O)[C@@H]2CCCN2[C@H](C(=O)NC(C)(C)C)[C@H](C)NC(=O)[C@H]([C@@H](C)O)NC(=O)[C@H](CC(=O)O)NC1=O
74
